pKi values, listed per item
- target: Carbonic anhydrase 1 (Homo sapiens)
- Sequence (P00915 whole entry): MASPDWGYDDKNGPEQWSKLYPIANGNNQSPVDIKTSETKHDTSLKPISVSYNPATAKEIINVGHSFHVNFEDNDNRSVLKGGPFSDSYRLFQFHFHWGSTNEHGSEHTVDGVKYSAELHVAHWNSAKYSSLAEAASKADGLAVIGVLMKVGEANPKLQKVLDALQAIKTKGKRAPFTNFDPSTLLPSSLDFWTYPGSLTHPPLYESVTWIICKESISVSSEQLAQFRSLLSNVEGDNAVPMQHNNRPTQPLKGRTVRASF
- assay-notes: Inhibition of recombinant human carbonic anhydrase 1 preincubated with enzyme for 15 mins by phenol red dye based stopped flow CO2 hydration assay
Scale: pKi equals -log10([C]), with [C] in mol/L.

Please review the entries below; each comes with its answer.
[
  {
    "smiles-structure": "O=C(Nc1cccc(C(=O)O)c1)Nc1cc2cc(Br)ccc2o1",
    "pKi": 4.48
  },
  {
    "smiles-structure": "Cc1c(NC(=O)Nc2cccc(C(=O)O)c2)oc2ccccc12",
    "pKi": 4.48
  },
  {
    "smiles-structure": "Cc1c(NC(=O)Nc2ccc(C(=O)O)cc2)oc2ccccc12",
    "pKi": 5.35
  },
  {
    "smiles-structure": "O=C(Nc1ccc(C(=O)O)cc1)Nc1cc2cc(Br)ccc2o1",
    "pKi": 4.69
  }
]

# evaluate next
INPUT: Provide pKi, system Carbonic anhydrase 1 (Homo sapiens), entry `Cc1c(NC(=O)Nc2ccc(C(=O)NCC(=O)O)cc2)oc2ccccc12`
OUTPUT: 4.19
